system: Plasmodium falciparum; experiment: Antimalarial activity against chloroquine-resistant Plasmodium falciparum W2 assessed as inhibition of parasite proliferation after 96 hrs by SYBR Green I-based fluorescence method; assay type: functional, organism-based; settings: W2, 96 h
PROPERTY LABEL: log10 IC50 (log10 of the value in nM)
Please interpret these as log10 of IC50 where IC50 is in nM.

Asked: Fill in: log10 IC50 of C[C@H]1[C@@H](OC(=O)c2ccc(/C=C/C(=O)c3ccc(Cl)c(Cl)c3Cl)cc2)O[C@@H]2O[C@]3(C)CC[C@H]4[C@H](C)CC[C@@H]1[C@@]24OO3 is ___
Given back: 0.77

Asked: How about COc1ccc(C(=O)/C=C/c2ccc(C(=O)O)cc2)cc1[N+](=O)[O-] ?
Given back: 1.49

Asked: How about COc1ccc(C(=O)/C=C/c2ccc(C(=O)OC3O[C@@H]4O[C@]5(C)CC[C@H]6[C@H](C)CC[C@@H]([C@H]3C)[C@@]46OO5)cc2)c(OC)c1 (some centres not stated) ?
Given back: 0.31

Asked: How about O=C(O)c1ccc(/C=C/C(=O)c2ccc(Cl)c(Cl)c2Cl)cc1 ?
Given back: 1.79

Asked: How about C[C@H]1[C@H](OC(=O)CCC(=O)O)O[C@@H]2O[C@@]3(C)CC[C@H]4[C@H](C)CC[C@@H]1[C@@]24OO3 [ARTESUNATE] ?
Given back: 0.76

Further cases:
Asked: Fill in: log10 IC50 of COc1ccc(C(=O)/C=C/c2ccc(C(=O)O)cc2)cc1OC is ___
Given back: 1.03

Asked: How about COc1ccc(C(=O)/C=C/c2ccc(C(=O)O)cc2)c(OC)c1 ?
Given back: 1.17

* * *

assay: Selectivity index, ratio of IC50 for chloroquine-resistant Plasmodium falciparum W2 to IC50 for human TK10 cells; design: species or system TK-10
PROPERTY LABEL: Ratio IC50

Worked examples, 3 compounds total:
Asked: Fill in: Ratio IC50 of O=C(O)c1ccc(/C=C/C(=O)c2ccccc2)cc1 is ___
Given back: >1

Asked: How about C[C@H]1[C@@H](OC(=O)c2ccc(/C=C/C(=O)c3ccc(Cl)c(Cl)c3Cl)cc2)O[C@@H]2O[C@]3(C)CC[C@H]4[C@H](C)CC[C@@H]1[C@@]24OO3 ?
Given back: 9198.6

Asked: How about COc1ccc(C(=O)/C=C/c2ccc(C(=O)OC3O[C@@H]4O[C@]5(C)CC[C@H]6[C@H](C)CC[C@@H]([C@H]3C)[C@@]46OO5)cc2)cc1OC (some centres not stated) ?
Given back: >4105

Further cases:
Asked: Fill in: Ratio IC50 of COc1ccc(C(=O)/C=C/c2ccc(C(=O)O)cc2)cc1[N+](=O)[O-] is ___
Given back: 0.7

Asked: How about C[C@@H]1CC[C@H]2[C@@H](C)C(OC(=O)c3ccc(/C=C/C(=O)c4ccccc4)cc3)O[C@@H]3O[C@]4(C)CC[C@@H]1[C@]32OO4 (some centres not stated) ?
Given back: >786

Asked: How about COc1ccc(C(=O)/C=C/c2ccc(C(=O)OC3O[C@@H]4O[C@]5(C)CC[C@H]6[C@H](C)CC[C@@H]([C@H]3C)[C@@]46OO5)cc2)c(OC)c1 (some centres not stated) ?
Given back: >10799

Asked: How about COc1ccc(C(=O)/C=C/c2ccc(C(=O)O)cc2)c(OC)c1 ?
Given back: 4
